All figures here come from PubChem BioAssay (NCI).

The entries below come with measured growth values attached.
system: EKVX NSCLC; test: NCI-60 one-dose screen, 48 h (100 = growth as untreated, 0 = no growth, -100 = all killed); settings: 10 µM unless noted
The panel holds about 83,000 compounds, 20% with a hit somewhere; the sample as a whole holds those more often.
Hi! Could you send only the number? It should be in %, unit omitted.

{"columns": ["chemical.string", "value.units", "readout.value"],
 "data": [
  ["Nc1cccc(NC(=O)C(=O)Nc2cccc(N)c2)c1", "%", 94],
  ["O=C1C(Cl)=C(Cl)C(=O)c2c1nc1n2CCCC1", "%", 95.9],
  ["O=C(O)c1cccnc1Br", "%", 107],
  ["COc1ccc(S(=O)(=O)NCCNc2nccc(-c3c(-c4cccc([N+](=O)[O-])c4)nc4sccn34)n2)cc1", "%", 82.1],
  ["COc1cc(/C=C2\\CN(C(=O)CCN3CCC(=NO)CC3)C/C(=C\\c3cc(OC)c(OC)c(OC)c3)C2=O)cc(OC)c1OC", "%", -36.1],
  ["Clc1cccc(Nc2nc(Nc3cnc4ccccc4c3)c3[nH]cnc3n2)c1", "%", 41.3],
  ["O=C1O[C@H]([C@H](O)CO)C(O)=C1O", "%", 110],
  ["CCn1cc2c(cc1=O)-c1nc3ccccc3c3ccnc(c13)C2=O", "%", 87.8]
]}

# input Write down the reported growth of "C=CCSc1nnc(-c2ccc(C(C)(C)C)cc2)n1-c1cccc(C(F)(F)F)c1" , test system: EKVX NSCLC.
# output 22.2

# input Cool, now "COc1cc(C(=O)/C=C/c2c(C)n([O-])c3ccc(C)cc3[n+]2=O)cc(OC)c1OC"
# output 50.8

* * *

system: SK-MEL-2 melanoma; assay: NCI-60 one-dose screen, 48 h (100 = growth as untreated, 0 = no growth, -100 = all killed); details: 10 µM unless noted
Compounds without any hit were thinned out: in the full panel of roughly 83,000, 20% have a hit.
measure: growth (%)
Hi! Could you send only the number? It should be in %, unit omitted.

# example entries with known answers
{"columns": ["compound", "readout.value"],
 "data": [
  ["CCCCNC(=O)NS(=O)(=O)c1ccc(N2N=C(c3cc(C)ccc3C)CC2c2cc(OC)c(OC)c(OC)c2)cc1 (stereo unspecified)", 54.9],
  ["CN1CCCCC1CCN1c2ccccc2Sc2ccc(Cl)cc21 (stereo unspecified)", 71.2],
  ["CCn1cc2c(cc1=O)-c1nc3ccccc3c3ccnc(c13)C2=O", 62.3],
  ["Cc1ccc2c(NCCCN(C)C)c3c(C)nn(C)c3nc2c1", 44],
  ["c1ccc(CSc2ncnc3nc[nH]c23)nc1", 112]
]}

Okay, next one:
# input I would be grateful if you could share the reported growth for "CN(C)CCOc1ccc(-c2nc3ccc(-c4nc5ccc(N6CCN(C)CC6)cc5[nH]4)cc3[nH]2)cc1" .
# output 25.7

* * *

system: ACHN renal; assay: NCI-60 one-dose screen, 48 h (100 = growth as untreated, 0 = no growth, -100 = all killed); settings: 10 µM unless noted
Compounds without any hit were thinned out: in the full panel of roughly 83,000, 20% have a hit.
The entries below come with measured growth values attached.
Hi! Could you send only the number? It should be in %, unit omitted.

{"columns": ["compound", "measure", "readout.value"],
 "data": [
  ["COc1ccc(C2CC(=O)Nc3c2c(C)nn3-c2nc3ccccc3[nH]2)cc1 (stereo not given)", "growth", 99.1],
  ["Cc1cc2cc3cc(C)c(N(C)C)cc3nc2cc1N(C)C", "growth", 39.1],
  ["CCCCCCCCCCCCCCCCCCNC(=O)[C@H]1CSC(c2ccc(OC)c(F)c2)N1 (stereo not given in full)", "growth", 87.8],
  ["C(=N\\Nc1ccccn1)/c1ccccn1", "growth", 14.1]
]}

# input I would be grateful if you could share the reported growth for "COc1ccc(/C=C/C(=O)c2c(O)c(C)c(O)c3c2OC2=CC(O)=C(C(C)=O)C(=O)[C@]23C)cc1" .
# output 0.0747

# input Cool, now "C=C1C(=O)O[C@H]2[C@H]1CC/C(Cn1cc(Cn3ccc4ccccc43)nn1)=C\CC[C@@]1(C)O[C@@H]21"
# output -52.9

# input Cool, now C=CC[N+]1(CCO)CCN=C1CCCCCCCCCCCCC (stereo not given)
# output -91.9

# input Cool, now CN1C2CCC1/C(=C\c1ccc(Cl)cc1)C1=C2[C@@H](c2ccc(Cl)cc2)C(C#N)=C(N)O1 (stereo not given in full)
# output 93.9

# input Cool, now C=C1CCC2C3(C)COC(C)(C)OC3CCC2(C)C1C/C=C1/C(=O)OCC1OC(C)=O (stereo not given)
# output 24.3
